Cited source: PubChem BioAssay (NCATS)

System: MKL-1
Experiment: qHTS assay to identify novel small-molecules to repurpose for Merkel cell carcinoma treatment (AID 1296009); note: nearly all actives have a fitted effect of over 60% in size
Details: MCC and control cell lines, CellTiter-Glo viability, 72 h; series mostly up to 46 µM
Records with an inconclusive call do not appear. The source made the active and inactive calls. Calls come from the whole dose curve; as a rule, active = well fitted inhibition curve with a large enough effect; inconclusive = small, poorly fitted or top-dose-only effect; inactive = flat fitted curve, though single readings scatter.
Mark one answer only. Choices: active, inactive

// query Tell me the recorded outcome of this test for CN(C)CCOC1=Cc2ccccc2Sc2ccc(Cl)cc21 .
// result inactive

// query Tell me the recorded outcome of this test for COc1ccc2c(c1)CCCC2=O .
// result inactive

// query Tell me the recorded outcome of this test for CCN(CC)CCN .
// result inactive

// query Tell me the recorded outcome of this test for NC(=O)NC1N=C([O][Al])NC1=O (stereo not drawn) .
// result inactive

// query Tell me the recorded outcome of this test for O=C(CCCCC(=O)Nc1c(I)cc(I)c(C(=O)O)c1I)Nc1c(I)cc(I)c(C(=O)O)c1I .
// result inactive

// query Tell me the recorded outcome of this test for CCO[C@H](Cc1ccc(OCCc2ccc(OS(C)(=O)=O)cc2)cc1)C(=O)O .
// result inactive

// query Tell me the recorded outcome of this test for N[C@@H](Cc1cc(I)c(O)c(I)c1)C(=O)O .
// result inactive

// query Tell me the recorded outcome of this test for NCC(=O)O .
// result inactive

// query Tell me the recorded outcome of this test for CN(C)C(=O)CNC(=O)Cc1ccccc1 .
// result inactive

// query Tell me the recorded outcome of this test for CCC1(c2cnc[nH]2)Cc2ccccc2C1 .
// result inactive

// query Tell me the recorded outcome of this test for O=C1Cc2cc(Cl)ccc2N1 .
// result inactive

// query Tell me the recorded outcome of this test for Oc1ccc(CCNCCCCCCNCCc2ccccc2)cc1O .
// result active

// query Tell me the recorded outcome of this test for CCCCCCCCCCCC[N+](C)(C)Cc1ccccc1 .
// result active

---

Test system: KB-3-1
Assay: Cytotoxic Profiling of Annotated Libraries Using Quantitative High-Throughput Screening (AID 1296008); note: % is set by controls: 0 for no effect and ±100 for the full control effect; nearly all actives have a fitted effect of over 60% in size
Conditions: Five cell lines viability, CellTiter-Glo ATP luminescence, 48-72 h; active compounds read low
Inconclusive results are not listed.
Please respond with reported max response for every item in the list.
Just the number please, in %, no unit attached.

// query Param item = COC(=O)C1=C(C)NC(COC(N)=O)=C(C(=O)OC(C)C)C1c1cccc(Cl)c1Cl (stereo not drawn) ; retrieve measured max response.
// result 2.72

// query Param item = CCC(=O)O[C@H]1[C@H](O[C@@H]2[C@@H](C)[C@H](O[C@H]3C[C@@](C)(OC)[C@@H](O)[C@H](C)O3)[C@@H](C)C(=O)O[C@H](CC)[C@@](C)(O)[C@H](O)[C@@H](C)C(=O)[C@H](C)C[C@@]2(C)O)O[C@H](C)C[C@@H]1N(C)C ; retrieve measured max response.
// result 2.69

// query Param item = Cc1nn(-c2ccccc2)c(C)c1/C=N/N1CCN(Cc2ccccc2)CC1 ; retrieve measured max response.
// result 8.96

// query Param item = CCCN(CCC)C(=O)C(CCC(=O)OCCCN1CCN(CCOC(=O)Cc2c(C)n(C(=O)c3ccc(Cl)cc3)c3ccc(OC)cc23)CC1)NC(=O)c1ccccc1 (stereo not drawn) ; retrieve measured max response.
// result -0.886

// query Param item = CN1[C@@H]2CC[C@H]1CC(NC(=O)n1c(=O)[nH]c3ccccc31)C2 (stereo partly drawn) ; retrieve measured max response.
// result -6.43

// query Param item = CC(C)C(C)(C)C(C)(C)C(C)(C)S ; retrieve measured max response.
// result -15.8

// query Param item = COC(=O)C1=CO[C@@H](O)[C@@H]2C(CO)=CC[C@H]12 ; retrieve measured max response.
// result -12.1

// query Param item = CSc1ccc(/C=C2/C(C)=C(CC(=O)O)c3cc(F)ccc32)cc1 ; retrieve measured max response.
// result -18.2

---

Please respond with reported max response for every item in the list.
Test: qHTS assay for small molecule agonists of the antioxidant response element (ARE) signaling pathway measured by Nrf2-dependant transcriptional activity - cell viability counter screen (AID 720653); note: % is set by controls: 0 for no effect and ±100 for the full control effect
Conditions: ARE-bla HepG2 viability, CellTiter-Glo ATP luminescence, 16 h; active compounds read low
Results filed as inconclusive are left out.
Just the number please, in %, no unit attached.

// query Param item = Nc1ccc(O)cc1 ; retrieve measured max response.
// result -19.2

// query Param item = OCc1c[nH]c2ccccc12 ; retrieve measured max response.
// result 3.93

// query Param item = COC(=O)c1c(Cl)c(Cl)c(C(=O)OC)c(Cl)c1Cl ; retrieve measured max response.
// result -11.1

// query Param item = CN1C(=O)c2ccccc2C1=O ; retrieve measured max response.
// result -2.52

// query Param item = Cc1ccc(O)cc1 ; retrieve measured max response.
// result -5.41

// query Param item = Brc1ccccc1-c1ccccc1 ; retrieve measured max response.
// result 3.59

// query Param item = C1=CC2C3C=CC(C3)C2C1 (centres undefined) ; retrieve measured max response.
// result -2.11

// query Param item = O=C(Oc1ccccc1)c1cccc(C(=O)Oc2ccccc2)c1 ; retrieve measured max response.
// result -2.16

// query Param item = CCCC(=O)c1cc(O)c(O)cc1O ; retrieve measured max response.
// result -22.5

---

Test system: Tov-21-G
Experiment: Primary qHTS to identify gynecologic anti-cancer compounds using libraries of approved drugs and bioactive compounds (AID 1345084); note: nearly all actives have a fitted effect of over 55% in size
Conditions: Gynecologic cancer cell panel viability, ATPlite luminescence, 48 h; series mostly up to 57.5 µM
Records with an inconclusive call do not appear. Activity calls are given as the source filed them. Calls come from the whole dose curve; as a rule, active = well fitted cell-killing curve with a large enough effect; inconclusive = small, poorly fitted or top-dose-only effect, or effect the other way; inactive = flat fitted curve, though single readings scatter.
Mark one answer only. Choices: active, inactive

// query Tell me the recorded outcome of this test for COCCOCC(OC)OC .
// result inactive

// query Tell me the recorded outcome of this test for C=CC[N+]1([C@H]2C[C@H]3[C@@H]4CC[C@H]5C[C@H](OC(C)=O)[C@@H](N6CCCCC6)C[C@]5(C)[C@H]4CC[C@]3(C)[C@H]2OC(=O)CC)CCCCC1 .
// result inactive

// query Tell me the recorded outcome of this test for COc1cc(C(=O)NC2CCCNC2)cc(OC)c1OC (centres undefined) .
// result inactive

// query Tell me the recorded outcome of this test for CC(C)N(CCC(=O)c1ccc2ccccc2c1)Cc1ccccc1 .
// result inactive

// query Tell me the recorded outcome of this test for CN(C)CCCOC1(Cc2ccccc2)CCCCCC1 .
// result inactive

// query Tell me the recorded outcome of this test for O=c1[nH]c(=O)n([C@H]2O[C@H](CO)[C@@H](O)[C@@H]2O)cc1/C=C\Br .
// result inactive

// query Tell me the recorded outcome of this test for Nc1ncnc2c1ncn2Cc1c(F)cccc1Cl .
// result inactive

// query Tell me the recorded outcome of this test for CC[N+](CC)(CC)CCOC(=O)C(C1CCCC1)C1CCCC1 .
// result inactive

// query Tell me the recorded outcome of this test for CN1C(=O)CC(C)(c2ccccc2)C1=O (centres undefined) .
// result inactive

// query Tell me the recorded outcome of this test for CO[C@@H]1[C@@H](OC)[C@H](C)[C@@](O)(CC(=O)O)O[C@H]1[C@H](C)[C@H]1O[C@@]2(CC[C@@](C)([C@H]3CC[C@@](C)([C@@H]4O[C@@H]([C@H]5O[C@](C)(O)[C@H](C)C[C@@H]5C)C[C@@H]4OC4C[C@H](OC)[C@@H](OC)[C@H](C)O4)O3)O2)C[C@H](O)[C@H]1C (some centres undefined) .
// result active

// query Tell me the recorded outcome of this test for CC(=O)Nc1c(I)c(NC(C)=O)c(I)c(C(=O)O)c1I .
// result inactive

// query Tell me the recorded outcome of this test for Cc1ccc(-c2ccccc2C#N)cc1 .
// result inactive

// query Tell me the recorded outcome of this test for CC(=O)[C@@]1(O)CC[C@H]2[C@@H]3C[C@H](C)C4=CC(=O)CC[C@]4(C)[C@H]3CC[C@@]21C .
// result inactive

// query Tell me the recorded outcome of this test for CCOC(=O)NNc1nncc2ccccc12 .
// result inactive

// query Tell me the recorded outcome of this test for COc1ccc2nc(SCc3ncc(C)c(OC)c3C)[nH]c2c1 .
// result inactive

// query Tell me the recorded outcome of this test for C=CCNc1nc(NCC=C)nc(N2CCN(C(c3ccc(F)cc3)c3ccc(F)cc3)CC2)n1 .
// result inactive

// query Tell me the recorded outcome of this test for NS(=O)(=O)c1cc(C(=O)NN2C[C@H]3[C@H]4CCC(C4)[C@H]3C2)ccc1Cl .
// result inactive

// query Tell me the recorded outcome of this test for O=C1[C@@H]2[C@H]3CC[C@H](C3)[C@@H]2C(=O)N1CCCCN1CCN(c2ncccn2)CC1 .
// result inactive

// query Tell me the recorded outcome of this test for O=C(CS(=O)Cc1ccco1)NC/C=C\COc1cc(CN2CCCCC2)ccn1 (centres undefined) .
// result inactive

// query Tell me the recorded outcome of this test for COc1cc(C=O)ccc1O .
// result inactive

// query Tell me the recorded outcome of this test for COc1cc2c(cc1OC)C(=O)CC2 .
// result inactive

// query Tell me the recorded outcome of this test for CC(NCCC(c1ccccc1)c1ccccc1)c1ccccc1 (centres undefined) .
// result inactive

// query Tell me the recorded outcome of this test for O=C(COCCOCCOCC(=O)Nc1c(I)cc(I)c(C(=O)O)c1I)Nc1c(I)cc(I)c(C(=O)O)c1I .
// result inactive

// query Tell me the recorded outcome of this test for c1ccc(C(O[C@H]2CCCN(CCc3ccc4c(c3)OCO4)C2)c2ccccc2)cc1 .
// result inactive
